# ASSAY: qHTS Assay for inhibitors of the human cytomegalovirus (HCMV); further: on the % scale 0 is the no-effect control and ±100 the full control effect
# ASSAY_SETUP: HFF cells, HCMV-luciferase reporter, 72 h; at 57.5 µM
Hit rate of the full screen: of about 410,000 compounds, about 18,000 (4.4%) were called active. About 7% were inconclusive and are not listed. No stated cut-off is given here; in the data, active means activity change below about -60%; inconclusive means no clear call, values can overlap the other calls; inactive means above about -39%. Many of the other results were omitted from the sample, so actives are more common in it than they were.
Outcomes: active, inactive

MOLECULE: Cc1ccc(Nc2c(-c3ccc(N(C)C)cc3)nc3nc[nH]n23)cc1
QUALITATIVE_LABEL: inactive
//
MOLECULE: COc1ccc(S(=O)(=O)NNC(=O)Nc2ccc(C)cc2)c(OC)c1
QUALITATIVE_LABEL: inactive
//
MOLECULE: CCOC(=O)c1ccc(NC(=O)c2ncn(-c3ccccc3)n2)cc1
QUALITATIVE_LABEL: inactive
//
MOLECULE: O=C(CN1CCN(c2ccc(Cl)cc2)CC1)NCc1cccs1
QUALITATIVE_LABEL: inactive
//
MOLECULE: CC(C)OC(=O)CN1CCN(c2ccc(Cl)cc2)CC1
QUALITATIVE_LABEL: inactive
//
MOLECULE: Oc1ccc(N2CCN(C(=S)NCc3ccccc3)CC2)cc1
QUALITATIVE_LABEL: active

---

# ASSAY: qHTS Assay for inhibitors of the human cytomegalovirus (HCMV); further: on the % scale 0 is the no-effect control and ±100 the full control effect
# ASSAY_SETUP: HFF cells, HCMV-luciferase reporter, 72 h; at 57.5 µM; stronger effect = lower value
# Method: NCGC Assay Overview: Infection with human cytomegalovirus (HCMV) continues to pose significant threats for pregnant women and immunocompromised hosts. […] This is a cell-based assay for HCMV inhibition in HFFs cells. […] At 72 h post infection cell lysates were collected and luciferase activity was determined using the Glomax-Multi + Detection System (Promega, Madison, WI). […]
The whole screen tested about 410,000 compounds, of which about 18,000 (4.4%) were called active. Roughly 7% stayed inconclusive and do not appear here. The list comes from a sample in which actives are over-represented; it also holds close analogues and randomly drawn compounds.
In this section, each of the molecules is paired with its reported activity change, negative = inhibition.

MOLECULE: O=C(C1CCN(S(=O)(=O)c2cnc[nH]2)CC1)N1CCN(Cc2ccc3c(c2)OCO3)CC1
VALUE_UNITS: %
activity change, negative = inhibition: 9.71
--
MOLECULE: O=C(C1CCN(Cc2ccc(Cl)cc2)CC1)N1CCN(Cc2ccc3c(c2)OCO3)CC1
VALUE_UNITS: %
activity change, negative = inhibition: -63
--
MOLECULE: CCC(Sc1nnc(-c2ccc(OC)cc2)c(-c2ccc(OC)cc2)n1)C(=O)NC1CCCCC1 (stereo not given)
VALUE_UNITS: %
activity change, negative = inhibition: 5.23
--
MOLECULE: CCOC(=O)c1cccc(NC(=O)C2CCN(c3ncnc4c3nc3n4CCCCC3)CC2)c1
VALUE_UNITS: %
activity change, negative = inhibition: 4.29
--
MOLECULE: O=C(Nc1ccccc1)N1CCC(C(=O)N2CCN(Cc3ccccc3)CC2)CC1
VALUE_UNITS: %
activity change, negative = inhibition: 0

---

activity change, negative = inhibition values by entry
# ASSAY: qHTS Assay for inhibitors of the human cytomegalovirus (HCMV); further: on the % scale 0 is the no-effect control and ±100 the full control effect
# ASSAY_SETUP: HFF cells, HCMV-luciferase reporter, 72 h; at 57.5 µM; stronger effect = lower value
About 18,000 (4.4%) of roughly 410,000 compounds were called active. Inconclusive results (about 7%) are left out. This is one part of a sample in which actives are shown more often than they occur.
EXPERIMENTAL_ENDPOINT: activity change, negative = inhibition (%)

COMPOUND: COc1ccc(C2(Nc3cccc(F)c3)C(=O)c3ccccc3C2=O)cc1
EXPERIMENTAL_ENDPOINT: activity change, negative = inhibition
VALUE_UNITS: %
REPORTED_RESULT: 3.54

COMPOUND: Cc1ccc(-c2ccc(CCC(=O)O)n2-c2ccc(C(N)=O)cc2)cc1
EXPERIMENTAL_ENDPOINT: activity change, negative = inhibition
VALUE_UNITS: %
REPORTED_RESULT: 15

COMPOUND: COc1ccc(-c2nn3c(-c4ccc(OC)cc4)nnc3c3ccccc23)cc1
EXPERIMENTAL_ENDPOINT: activity change, negative = inhibition
VALUE_UNITS: %
REPORTED_RESULT: 7.26

COMPOUND: O=C(CSc1cccc[n+]1[O-])c1ccc(-c2ccccc2)cc1
EXPERIMENTAL_ENDPOINT: activity change, negative = inhibition
VALUE_UNITS: %
REPORTED_RESULT: -97.9

COMPOUND: CCc1cccc(CC)c1NC(=O)Cn1c(=O)c(-c2cc(C)ccc2NC(C)=O)nc2ccccc21
EXPERIMENTAL_ENDPOINT: activity change, negative = inhibition
VALUE_UNITS: %
REPORTED_RESULT: -4.17

COMPOUND: Cc1ccc(Cn2cc(CCC(=O)NCc3ccc(OC(C)C)cc3)c3ccccc32)cc1
EXPERIMENTAL_ENDPOINT: activity change, negative = inhibition
VALUE_UNITS: %
REPORTED_RESULT: 4.19

COMPOUND: CCCCOc1ccc(CNC(=O)c2ccc3c(c2)N(C)C(=O)C2CCCCN32)cc1 (stereo not given)
EXPERIMENTAL_ENDPOINT: activity change, negative = inhibition
VALUE_UNITS: %
REPORTED_RESULT: 25.7

COMPOUND: FC(F)(F)c1nnc2c3ccccc3c(Cl)nn12
EXPERIMENTAL_ENDPOINT: activity change, negative = inhibition
VALUE_UNITS: %
REPORTED_RESULT: -86.4

COMPOUND: O=C(OC1CCCCC1=O)c1cccc(S(=O)(=O)NCc2ccccc2)c1 (stereo not given)
EXPERIMENTAL_ENDPOINT: activity change, negative = inhibition
VALUE_UNITS: %
REPORTED_RESULT: -28.2

COMPOUND: Cc1nn(CC(=O)NCCc2ccccc2)c(=O)c2c1sc1ccccc12
EXPERIMENTAL_ENDPOINT: activity change, negative = inhibition
VALUE_UNITS: %
REPORTED_RESULT: 0.0704

---

# ASSAY: qHTS Assay for inhibitors of the human cytomegalovirus (HCMV); further: on the % scale 0 is the no-effect control and ±100 the full control effect
# ASSAY_SETUP: HFF cells, HCMV-luciferase reporter, 72 h; at 57.5 µM
The campaign covered roughly 410,000 compounds. About 18,000 (4.4%) were called active. Not shown: some 7% with an inconclusive outcome. No stated cut-off is given here; in the data, active means activity change below about -60%; inconclusive means no clear call, values can overlap the other calls; inactive means above about -39%. For the sample, actives were picked, then their nearest neighbours and some compounds at random.
Outcome codes: YES = active, NO = inactive

MOLECULE: Cc1ccc(S(=O)(=O)N(CC(=O)NCc2ccco2)c2ccccc2C)cc1
QUALITATIVE_LABEL: NO
//
MOLECULE: COc1ccccc1N(CC(=O)N/N=C(\C)c1ccccc1O)S(=O)(=O)c1ccc(C)cc1
QUALITATIVE_LABEL: YES
//
MOLECULE: CCOC(=O)C1CCC(CN(Cc2ccc(OC)cc2)S(=O)(=O)c2ccc(F)c(C(=O)Nc3cc(C)ccc3C)c2)CC1 (configuration not stated)
QUALITATIVE_LABEL: NO
//
MOLECULE: COc1ccc2c(c1)c(=O)c(S(=O)(=O)c1ccc(F)cc1)cn2CC(=O)Nc1ccc(C)cc1C
QUALITATIVE_LABEL: NO
//
MOLECULE: CCCS(=O)(=O)c1c(Nc2ccccc2C)sc(C(=O)c2ccccc2)c1N
QUALITATIVE_LABEL: NO
//
MOLECULE: COc1ccc2c(c1)c(N1CCCC1=O)c(C(=O)Nc1ccc(OC)c(Cl)c1)n2C
QUALITATIVE_LABEL: NO
//
MOLECULE: CCc1ccc(OCC(=O)N2CCN(CC(=O)Nc3ccccc3Cl)CC2)cc1
QUALITATIVE_LABEL: NO
//
MOLECULE: COc1ccccc1Cc1c(-c2ccc(Cl)cc2)nc2c3ccccc3ccn12
QUALITATIVE_LABEL: NO
//
MOLECULE: CC(C)c1ccc(S(=O)(=O)Nc2ccc(O)c(Sc3nc4ccccc4s3)c2)cc1
QUALITATIVE_LABEL: NO
//
MOLECULE: Cc1ccc(NC(=O)CS(=O)CC(=O)N(c2ccccc2)C(C)C(=O)NC2CCCC2)cc1 (configuration not stated)
QUALITATIVE_LABEL: NO
//
MOLECULE: CCC(=O)N1CCc2cc(Br)cc(S(=O)(=O)CCC(=O)N3CCN(c4ccc(F)cc4)CC3)c21
QUALITATIVE_LABEL: NO
//
MOLECULE: O=c1cc(COc2cccc(C(F)(F)F)c2)nc2sc3c(n12)CCCC3
QUALITATIVE_LABEL: NO
//
MOLECULE: CCOc1ccc(NS(=O)(=O)c2ccc(Cl)c(C(=O)N(C)Cc3cccnc3)c2)cc1
QUALITATIVE_LABEL: NO
//
MOLECULE: COc1ccccc1CCNS(=O)(=O)c1cn(C)nc1C
QUALITATIVE_LABEL: NO
//
MOLECULE: CCCCCCCCN1C(=O)[C@H](CC(=O)NCc2cccc3ccccc23)C[C@@]2(C(=O)OC)CCCCC=C12
QUALITATIVE_LABEL: NO
//
MOLECULE: COc1ccc(-c2noc(CCCC(=O)NC3CCCC3)n2)cc1OC
QUALITATIVE_LABEL: NO
//
MOLECULE: Cc1cc(C)cc(OCC(=O)OCC(=O)NC2CCCC2)c1
QUALITATIVE_LABEL: NO
//
MOLECULE: O=C1CSC(=O)N1CCOCCN1C(=O)CSC1=O
QUALITATIVE_LABEL: NO
//
MOLECULE: O=C(Nc1ccc(Cl)cc1)c1cccc(OC(=S)N2CCOCC2)c1
QUALITATIVE_LABEL: YES
//
MOLECULE: CCc1c(C)nc2c(OC)cccc2c1Cl
QUALITATIVE_LABEL: YES
//
MOLECULE: CCCc1c(-c2ccccc2F)ncn1Cc1ccccc1OC
QUALITATIVE_LABEL: NO
//
MOLECULE: Cc1ccc2cccc(NC(=O)c3cccc4ccccc34)c2n1
QUALITATIVE_LABEL: NO
//
MOLECULE: CCc1nn(-c2cc(Oc3cccc4ccccc34)nc(-c3ccccc3)n2)c(N)c1C#N
QUALITATIVE_LABEL: YES
//
MOLECULE: CCCCN(C)C(=O)c1ccc2c(c1)N(CC)C(=O)c1ccccc1S2(=O)=O
QUALITATIVE_LABEL: NO
//
MOLECULE: CCCCCc1c(Cc2ccccc2)ncn1CCc1ccccc1OC
QUALITATIVE_LABEL: YES
//
MOLECULE: COC(=O)c1c(NC(=O)c2ccc(Cl)c(Cl)c2)sc2c1CCCC2
QUALITATIVE_LABEL: NO
//
MOLECULE: O=C(Oc1cccc(C(=S)N2CCOCC2)c1)c1cccc(Cl)c1
QUALITATIVE_LABEL: NO
//
MOLECULE: COc1ccc(C)cc1N(CC(=O)NC(C)c1ccccc1)S(C)(=O)=O (configuration not stated)
QUALITATIVE_LABEL: NO
//
MOLECULE: O=C(Nc1cccc(Cl)c1)C1CCCN(c2cnccn2)C1 (configuration not stated)
QUALITATIVE_LABEL: NO
//
MOLECULE: COc1ccc(C(=O)NN2C(=O)C3C(c4ccccc4)C=CC(c4ccccc4)C3C2=O)cc1 (configuration not stated)
QUALITATIVE_LABEL: YES
//
MOLECULE: CN(Cc1ccccc1)c1ccc(-c2nc(-c3ccccc3)no2)cc1[N+](=O)[O-]
QUALITATIVE_LABEL: NO
//
MOLECULE: CCOC(=O)c1ccccc1NC(=O)c1nn(-c2ccc(OC)c(Cl)c2)c(=O)c2c1c1ccccc1n2C
QUALITATIVE_LABEL: NO
//
MOLECULE: Cc1ccc(-c2nnc(Nc3ccc(OCC(N)=O)cc3)c3ccccc23)cc1S(=O)(=O)NCC1CCCO1 (configuration not stated)
QUALITATIVE_LABEL: NO
//
MOLECULE: CCn1ccnc1CN(C)C(=O)c1cc(COc2ccc(Cl)cc2OC)on1
QUALITATIVE_LABEL: NO
//
MOLECULE: CN(c1ccccc1)c1ccc([N+](=O)[O-])c2nonc12
QUALITATIVE_LABEL: YES
//
MOLECULE: CC(C)NC(=O)c1nn(-c2ccccc2F)nc1CO
QUALITATIVE_LABEL: NO
//
MOLECULE: CCCNC(=S)N1CCC(NC(=O)C23CC4CC(CC(C4)C2)C3)CC1
QUALITATIVE_LABEL: NO
//
MOLECULE: CCc1c(C)nc2ncnn2c1N1CCC(C(=O)NCc2ccc3c(c2)OCO3)CC1
QUALITATIVE_LABEL: NO
//
MOLECULE: Cc1ccc(Cl)cc1NC(=O)C1CCN(S(C)(=O)=O)CC1
QUALITATIVE_LABEL: NO
//
MOLECULE: O=c1oc2ccccc2cc1-c1cn(-c2ccccc2)c(=S)[nH]1
QUALITATIVE_LABEL: YES
//
MOLECULE: COc1cc(C(=O)N2CCC(c3ccncc3)CC2)cc(OC)c1OC
QUALITATIVE_LABEL: NO
//
MOLECULE: CCOc1ccc(CNC(=O)c2ccc(CS(=O)c3ccccc3)o2)cc1 (configuration not stated)
QUALITATIVE_LABEL: NO
